// reported Ragweed plant response rating per item
test system: ragweed (common ragweed, Ambrosia elatior); test: Test A postemergence, visual injury rating; format: in vivo; details: 125 g ai/ha, 0 to 100 scale, 0 is no effect, 100 is complete control, approximately 10 days
In your answer, state the number alone without any accompanying words.

Observe how each entry below is paired with its result.
N#Cc1cccc(Oc2ncc(Cl)cn2)c1NCCCC(F)(F)F :: 30
CC(=NOC(C)C)c1c(C#N)cccc1Oc1ncc(Cl)cn1 :: 0
O=C(OCCC(F)(F)F)c1cc(Br)ccc1Oc1ncc(Cl)cn1 :: 0

Exercise: So what does the record say about Ragweed plant response rating for CCCC(=O)c1c(Oc2ncc(Cl)cn2)cccc1C(F)(F)F ?
Key: 20

Exercise: Again, but for COc1cccc(Oc2ncc(Cl)cn2)c1C(=O)OCCC(F)(F)F
Key: 40

Exercise: Again, but for CCCCCc1c(C#N)cccc1Oc1ncc(Cl)cn1
Key: 0

Exercise: Again, but for N#Cc1cccc(Oc2ncc(Cl)cn2)c1COCCCC(F)(F)F
Key: 10

Exercise: Again, but for N#CCc1ccccc1Oc1ncc(Cl)cn1
Key: 0

Exercise: Again, but for FC(F)(F)CCCCc1c(Br)cccc1Oc1ncc(Cl)cn1
Key: 60

Exercise: Again, but for CCOc1cccc(Oc2ncc(Cl)cn2)c1C(=O)OCCC(F)(F)F
Key: 0

###

system: oilseed rape (Brassica napus); assay: Test C postemergence, plant response rating; type: in vivo; conditions: Brassica napus, post-emergence, 31 g ai/ha, scale 0 to 100
ENDPOINT_LABEL: plant injury at 31 g/ha (%)
The answer is to be given in %; state only the numeric part.

Observe how each entry below is paired with its result.
O=C(OCC(F)(F)C(F)(F)F)c1c(Br)cccc1Oc1ncc(Cl)cn1 :: 5
O=C(CCC(F)(F)F)c1c(Cl)cccc1Oc1ncc(Cl)cn1 :: 80
C=CCOC(=O)c1c(Br)cccc1Oc1ncc(Cl)cn1 :: 40

Now, please, on to the next compound.
Exercise: So what does the record say about plant injury at 31 g/ha for N#Cc1cccc(Oc2ncc(Cl)cn2)c1CCCCC(F)(F)F ?
Key: 80

###

system: blackgrass (Alopecurus myosuroides); assay: Test C preemergence, plant response rating; format: in vivo; settings: Preemergence; 31 g ai/ha; scale 0 to 100
ENDPOINT_LABEL: Plant response rating, Blackgrass

Observe how each entry below is paired with its result.
O=C(CCCCC(F)(F)F)c1c(Br)cccc1Oc1ncc(Cl)cn1 :: 0
O=C(CCC(F)(F)F)c1c(Br)cccc1Oc1ncc(Cl)cn1 :: 80
N#Cc1cccc(Oc2ncc(Cl)cn2)c1CCCC(F)(F)F :: 98

Exercise: So what does the record say about Plant response rating, Blackgrass for FC(F)(F)CCCCc1c(Br)cccc1Oc1ncc(Cl)cn1 ?
Key: 50

###

test system: surinam grass (Brachiaria decumbens); assay: Test C preemergence, plant response rating; type: in vivo; conditions: 31 g ai/ha, scale 0 to 100
// reported Plant response rating, Surinam Grass per item
In your answer, state the number alone without any accompanying words.

CCCCC(=O)c1c(Br)cccc1Oc1ncc(Cl)cn1 :: 30
O=C(CCC(F)(F)F)c1c(Cl)cccc1Oc1ncc(Cl)cn1 :: 60
O=C(CCCC(F)(F)F)c1c(Oc2ncc(Cl)cn2)cccc1C(F)(F)F :: 20

Exercise: Request - read-out Plant response rating, Surinam Grass | tested on surinam grass (Brachiaria decumbens) | compound O=C(CCCC(F)(F)F)c1c(Cl)cccc1Oc1ncc(Cl)cn1
Key: 10

Exercise: Again, but for FC(F)(F)CCCc1c(Br)cccc1Oc1ncc(Cl)cn1
Key: 35

Exercise: Again, but for CCCC(=O)c1c(Br)cccc1Oc1ncc(Cl)cn1
Key: 30

Exercise: Again, but for N#Cc1cccc(Oc2ncc(Cl)cn2)c1COCCC(F)(F)F
Key: 50

###

test system: kochia (Kochia scoparia); assay: Test A postemergence, visual injury rating; type: in vivo; settings: Bassia scoparia, post-emergence, 240 h, 125 g ai/ha, 0 is no effect, 100 is complete control, read-out: Kochia plant response rating (0 to 100 scale)
ENDPOINT_LABEL: pest or weed control at 125 g/ha
State the value with its unit after it.

Observe how each entry below is paired with its result.
O=C(OCC(F)(F)C(F)(F)F)c1c(Br)cccc1Oc1ncc(Cl)cn1 [Compound 23] :: 80%
O=C(OCCC(F)(F)F)c1cc(C(F)(F)F)ccc1Oc1ncc(Cl)cn1 [Compound 53] :: 0%
C=CCOC(=O)c1c(Br)cccc1Oc1ncc(Cl)cn1 [Compound 22] :: 90%

Exercise: So what does the record say about pest or weed control at 125 g/ha for CC(CC(F)(F)F)OC(=O)c1c(Br)cccc1Oc1ncc(Cl)cn1 (stereo not shown) [Compound 16] ?
Key: 80%

###

// reported Plant response rating, Kochia per item
test system: kochia (Kochia scoparia); assay: Test C preemergence, plant response rating; format: in vivo; settings: 62 g ai/ha, scale 0 to 100

Observe how each entry below is paired with its result.
C=C(Br)COC(=O)c1c(Br)cccc1Oc1ncc(Cl)cn1 [Compound 61] :: 5
CCCCC(=O)c1c(Br)cccc1Oc1ncc(Cl)cn1 [Compound 79] :: 90
O=C(CCCCC(F)(F)F)c1c(Br)cccc1Oc1ncc(Cl)cn1 [Compound 82] :: 90

Now, please, on to the next compound.
Exercise: Request - read-out Plant response rating, Kochia | tested on kochia (Kochia scoparia) | compound CCCCC(=O)c1c(Oc2ncc(Cl)cn2)cccc1C(F)(F)F [Compound 130]
Key: 65

###

system: kochia (Kochia scoparia); experiment: Test A postemergence, visual injury rating; format: in vivo; conditions: 125 g ai/ha, 0 to 100 scale, 0 is no effect, 100 is complete control, approximately 10 days
// reported Kochia plant response rating per item

Observe how each entry below is paired with its result.
O=C(SCC(F)(F)F)c1c(Br)cccc1Oc1ncc(Cl)cn1 [Compound 85] :: 30
CCCCC(C#N)c1c(Br)cccc1Oc1ncc(Cl)cn1 (stereo not drawn) [Compound 114] :: 80
CCON=C(C)c1c(Br)cccc1Oc1ncc(Cl)cn1 [Compound 95] :: 0

Exercise: So what does the record say about Kochia plant response rating for CC(=NOCCC(F)(F)F)c1c(Br)cccc1Oc1ncc(Cl)cn1 [Compound 98] ?
Key: 0

Exercise: Again, but for N#Cc1cccc(Oc2ncc(Cl)cn2)c1C(=O)CCCC(F)(F)F [Compound 133]
Key: 20

Exercise: Again, but for CCC(C)OC(=O)c1c(Br)cccc1Oc1ncc(Cl)cn1 (stereo not drawn) [Compound 84]
Key: 30

Exercise: Again, but for FC(F)(F)CCCCc1c(Oc2ncc(Cl)cn2)cccc1C1CC1 [Compound 135]
Key: 60

Exercise: Again, but for O=C(CCCC(F)(F)F)c1c(Oc2ncc(Cl)cn2)cccc1C(F)(F)F [Compound 125]
Key: 100

Exercise: Again, but for O=C(CCC(F)(F)C(F)(F)F)c1c(Br)cccc1Oc1ncc(Cl)cn1 [Compound 110]
Key: 100

###

tested on: pigweed (Amaranthus retroflexus); assay: Test A preemergence, visual injury rating; assay type: in vivo; conditions: 125 g ai/ha, 0 to 100 scale (0 no effect, 100 complete control)
ENDPOINT_LABEL: Plant response rating, Pigweed
In your answer, state the number alone without any accompanying words.

Observe how each entry below is paired with its result.
FC(F)(F)CCCCc1c(Br)cccc1Oc1ncc(Cl)cn1 [Compound 138] :: 100
O=C(OCCC(F)(F)F)c1c(Oc2ncc(Cl)cn2)cccc1C(F)(F)F [Compound 113] :: 100
CCCCOC(=O)c1c(Br)cccc1Oc1ncc(Cl)cn1 [Compound 100] :: 60
CCCC(=O)c1c(Oc2ncc(Cl)cn2)cccc1C(F)(F)F [Compound 136] :: 100

Now, please, on to the next compound.
Exercise: So what does the record say about Plant response rating, Pigweed for C#CCOC(=O)c1c(Br)cccc1Oc1ncc(Cl)cn1 [Compound 108] ?
Key: 70

###

// reported Lambsquarters plant response rating per item
tested on: lambsquarters (Chenopodium album); test: Test C postemergence, plant response rating; format: in vivo; details: 125 g ai/ha, scale 0 to 100 (0 no effect, 100 complete control)

O=C(CCC(F)(F)F)c1c(Br)cccc1Oc1ncc(Cl)cn1 :: 85
N#Cc1cccc(Oc2ncc(Cl)cn2)c1COCCC(F)(F)F :: 85
FC(F)(F)CCCCc1c(Br)cccc1Oc1ncc(Cl)cn1 :: 100
CCCC(=O)c1c(Oc2ncc(Cl)cn2)cccc1C(F)(F)F :: 80
O=C(CCCC(F)(F)F)c1c(Cl)cccc1Oc1ncc(Cl)cn1 :: 95

Now, please, on to the next molecule.
Exercise: So what does the record say about Lambsquarters plant response rating for O=C(CCCC(F)(F)F)c1c(Br)cccc1Oc1ncc(Cl)cn1 ?
Key: 90

###

test system: nutsedge, yellow (yellow nutsedge, Cyperus esculentus); test: Test C postemergence, plant response rating; format: in vivo; conditions: 125 g ai/ha, scale 0 to 100 (0 no effect, 100 complete control)
// reported Nutsedge, Yellow plant response rating per item
In your answer, state the number alone without any accompanying words.

Observe how each entry below is paired with its result.
N#CC(CCCC(F)(F)F)c1ccccc1Oc1ncc(Cl)cn1 (stereo not drawn) :: 10
O=C(CCCC(F)(F)F)c1c(Br)cccc1Oc1ncc(Cl)cn1 :: 15
FC(F)(F)CCCCc1c(Cl)cccc1Oc1ncc(Cl)cn1 :: 5
N#CCCOC(=O)c1c(Br)cccc1Oc1ncc(Cl)cn1 :: 5
O=C(OCC(F)(F)F)c1c(Br)cccc1Oc1ncc(Cl)cn1 :: 5

Exercise: So what does the record say about Nutsedge, Yellow plant response rating for O=C(CCCC(F)(F)F)c1c(Cl)cccc1Oc1ncc(Cl)cn1 ?
Key: 25
